- Test system: MALME-3M
- assay_remarks: NCI 60 cell line screen (SRB), Melanoma
- Assay type: cell-based
- setup_conditions: MALME-3M (Melanoma)
I'd appreciate it if you could supply Log10LC50 values for the items below.

Task item: Data request, read-out Log10LC50, for C[C@@H]1CC[C@H]2[C@@H](C)C(=O)O[C@@H]3O[C@@]4(C)CC[C@@H]1[C@]32OO4 [QHS, reference compound]
Reply: >−4.00 M

Task item: For COC1OC2(C)CCC3CCCC(CCOCCC4CCCC5CCC6(C)OOC45C(OC)O6)C31OO2 (centres unmarked) , what is its reported Log10LC50?
Reply: >−4.00 M

Task item: Any idea what Log10LC50 was measured for COC1OC2(C)CCC3CCCC(CCOC(=O)c4ccc(C(=O)OCCC5CCCC6CCC7(C)OOC56C(OC)O7)cc4)C31OO2 (centres unmarked) ?
Reply: >−4.00 M

Task item: What measured Log10LC50 goes with CC(=O)O[C@H]1C(=O)[C@@]2(C)[C@H]([C@H](OC(=O)c3ccccc3)[C@]3(O)C[C@H](OC(=O)[C@H](O)[C@@H](NC(=O)c4ccccc4)c4ccccc4)C(C)=C1C3(C)C)[C@]1(OC(C)=O)CO[C@@H]1C[C@@H]2O [Paclitaxel, paclitaxel, reference compound] ?
Reply: −4.11 M

Task item: // Log10LC50 lookup, key: COC1OC2(C)CCC3CCCC(CCOC(=O)c4cccc(C(=O)OCCC5CCCC6CCC7(C)OOC56C(OC)O7)c4)C31OO2 (centres unmarked)
Reply: >−4.30 M

* * *

- Test system: COLO 205
- assay_remarks: NCI 60 cell line screen (SRB), Colon Cancer
- Format: cell-based
- setup_conditions: COLO 205 (Colon Cancer)
I'd appreciate it if you could supply Log10TGI values for the items below.

Task item: Query Log10TGI on COLO 205 for C[C@@H]1CC[C@H]2[C@@H](C)C(=O)O[C@@H]3O[C@@]4(C)CC[C@@H]1[C@]32OO4 [QHS, reference compound]
Reply: >−4.00 M

Task item: Param readout = Log10TGI; param system = COLO 205; param query = COC1OC2(C)CCC3CCCC(CCOCCC4CCCC5CCC6(C)OOC45C(OC)O6)C31OO2 (stereo not shown) [Compound 6, Trioxane Ether Dimer] ; response: value
Reply: −6.36 M

Task item: Form field - read-out: Log10TGI; system: COLO 205; submitted item: COC1OC2(C)CCC3CCCC(CCOC(=O)c4cccc(C(=O)OCCC5CCCC6CCC7(C)OOC56C(OC)O7)c4)C31OO2 (stereo not shown) [Compound 10, Trioxane Bis-ester Dimer]
Reply: −5.18 M

Task item: Please provide the recorded Log10TGI for COC1OC2(C)CCC3CCCC(CCOC(=O)c4ccc(C(=O)OCCC5CCCC6CCC7(C)OOC56C(OC)O7)cc4)C31OO2 (stereo not shown) [Compound 11, Bis-ester Dimer] , tested on COLO 205.
Reply: −5.71 M

* * *

Answer each item with its documented Log10GI50.
- Test system: MCF7/ADR-RES
- assay_remarks: NCI 60 cell line screen (SRB), Breast Cancer
- Assay type: cell-based
Give the value, in units of M, as a plain number.

Task item: For CC(=O)O[C@H]1C(=O)[C@@]2(C)[C@H]([C@H](OC(=O)c3ccccc3)[C@]3(O)C[C@H](OC(=O)[C@H](O)[C@@H](NC(=O)c4ccccc4)c4ccccc4)C(C)=C1C3(C)C)[C@]1(OC(C)=O)CO[C@@H]1C[C@@H]2O [Paclitaxel, paclitaxel, reference compound] , what is its reported Log10GI50?
Reply: −8.48

Task item: Returns the measured Log10GI50 for the input molecule. Input: COC1OC2(C)CCC3CCCC(CCOC(=O)c4cccc(C(=O)OCCC5CCCC6CCC7(C)OOC56C(OC)O7)c4)C31OO2 (stereo not shown)
Reply: −5.36

Task item: # get_value(readout='Log10GI50', item= COC1OC2(C)CCC3CCCC(CCOC(=O)c4ccc(C(=O)OCCC5CCCC6CCC7(C)OOC56C(OC)O7)cc4)C31OO2 (stereo not shown) )
Reply: −5.11

Task item: Reported Log10GI50, molecule COC1OC2(C)CCC3CCCC(CCOCCC4CCCC5CCC6(C)OOC45C(OC)O6)C31OO2 (stereo not shown) : ____
Reply: −6.13

* * *

- System: K-562
- assay_remarks: NCI 60 cell line screen (SRB), Leukemia
- Assay type: cell-based
- setup_conditions: K-562 (Leukemia)
Would you kindly list Log10TGI for each of these compounds?
Give just the numeric value; M need not be written.

Task item: Could you share which Log10TGI value was measured for COC1OC2(C)CCC3CCCC(CCOC(=O)c4cccc(C(=O)OCCC5CCCC6CCC7(C)OOC56C(OC)O7)c4)C31OO2 (centres unmarked) ?
Reply: −5.35

Task item: Would you mind telling me what Log10TGI value was observed for C[C@@H]1CC[C@H]2[C@@H](C)C(=O)O[C@@H]3O[C@@]4(C)CC[C@@H]1[C@]32OO4 [QHS, reference compound] ?
Reply: −4.00

* * *

- Tested on: SK-MEL-5
- assay_remarks: NCI 60 cell line screen (SRB), Melanoma
- Assay type: cell-based
- setup_conditions: SK-MEL-5 (Melanoma)
readout_name: Log10GI50 (M)
Expressed in M, but write only the number.

Task item: Param item = COC1OC2(C)CCC3CCCC(CCOCCC4CCCC5CCC6(C)OOC45C(OC)O6)C31OO2 (stereo not shown) ; retrieve measured Log10GI50.
Reply: −7.39

Task item: Which value of Log10GI50 has been reported for COC1OC2(C)CCC3CCCC(CCOC(=O)c4ccc(C(=O)OCCC5CCCC6CCC7(C)OOC56C(OC)O7)cc4)C31OO2 (stereo not shown) in the records?
Reply: −6.00

Task item: Field request: Log10GI50 | item: C[C@@H]1CC[C@H]2[C@@H](C)C(=O)O[C@@H]3O[C@@]4(C)CC[C@@H]1[C@]32OO4 [QHS, reference compound]
Reply: −4.10

Task item: Which Log10GI50 reading was recorded for the compound COC1OC2(C)CCC3CCCC(CCOC(=O)c4cccc(C(=O)OCCC5CCCC6CCC7(C)OOC56C(OC)O7)c4)C31OO2 (stereo not shown) ?
Reply: −5.57

* * *

For each of the compounds below, state its Log10TGI.
- Tested on: SW-620
- assay_remarks: NCI 60 cell line screen (SRB), Colon Cancer
- Format: cell-based
- setup_conditions: SW-620 (Colon Cancer)

Task item: Name the recorded Log10TGI for CC(=O)O[C@H]1C(=O)[C@@]2(C)[C@H]([C@H](OC(=O)c3ccccc3)[C@]3(O)C[C@H](OC(=O)[C@H](O)[C@@H](NC(=O)c4ccccc4)c4ccccc4)C(C)=C1C3(C)C)[C@]1(OC(C)=O)CO[C@@H]1C[C@@H]2O [Paclitaxel, paclitaxel, reference compound] .
Reply: >−4.00 M

Task item: Please look up its Log10TGI: COC1OC2(C)CCC3CCCC(CCOC(=O)c4ccc(C(=O)OCCC5CCCC6CCC7(C)OOC56C(OC)O7)cc4)C31OO2 (centres unmarked) [Compound 11, Bis-ester Dimer]
Reply: >−4.00 M

Task item: What Log10TGI value was documented for this compound, C[C@@H]1CC[C@H]2[C@@H](C)C(=O)O[C@@H]3O[C@@]4(C)CC[C@@H]1[C@]32OO4 [QHS, reference compound] ?
Reply: >−4.00 M

Task item: What value of Log10TGI has been recorded for this entry: COC1OC2(C)CCC3CCCC(CCOCCC4CCCC5CCC6(C)OOC45C(OC)O6)C31OO2 (centres unmarked) [Compound 6, Trioxane Ether Dimer]
Reply: >−4.00 M

Task item: Given the compound COC1OC2(C)CCC3CCCC(CCOC(=O)c4cccc(C(=O)OCCC5CCCC6CCC7(C)OOC56C(OC)O7)c4)C31OO2 (centres unmarked) [Compound 10, Trioxane Bis-ester Dimer] , what is its reported Log10TGI?
Reply: >−4.30 M

* * *

- Test system: OVCAR-8
- assay_remarks: NCI 60 cell line screen (SRB), Ovarian Cancer
- Format: cell-based
- setup_conditions: OVCAR-8 (Ovarian Cancer)
Answer each item with its documented Log10GI50.
Lab book: enter the figure in M, no units written.

Task item: Given the entry COC1OC2(C)CCC3CCCC(CCOCCC4CCCC5CCC6(C)OOC45C(OC)O6)C31OO2 (centres unmarked) , report its measured Log10GI50.
Reply: −6.33

Task item: GET /values?readout=Log10GI50&item= CC(=O)O[C@H]1C(=O)[C@@]2(C)[C@H]([C@H](OC(=O)c3ccccc3)[C@]3(O)C[C@H](OC(=O)[C@H](O)[C@@H](NC(=O)c4ccccc4)c4ccccc4)C(C)=C1C3(C)C)[C@]1(OC(C)=O)CO[C@@H]1C[C@@H]2O [Paclitaxel, paclitaxel, reference compound]
Reply: −10.75

Task item: Which Log10GI50 value belongs to COC1OC2(C)CCC3CCCC(CCOC(=O)c4ccc(C(=O)OCCC5CCCC6CCC7(C)OOC56C(OC)O7)cc4)C31OO2 (centres unmarked) ?
Reply: −6.03

Task item: Log10GI50 lookup needed for COC1OC2(C)CCC3CCCC(CCOC(=O)c4cccc(C(=O)OCCC5CCCC6CCC7(C)OOC56C(OC)O7)c4)C31OO2 (centres unmarked) , thanks.
Reply: −6.13
